experimental target: UniProtKB P11473
protocol notes: Agonist activity at VDR-LBD (unknown origin) expressed in Escherichia coli assessed as SRC2-3 coactivator peptide recruitment after 30 mins by fluorescence polarization assay
reported property: EC50

Identify measured EC50 corresponding to C=C1/C(=C\C=C2/CCC[C@]3(C)[C@@H]([C@H](C)CC(=O)O)CC[C@@H]23)C[C@@H](O)C[C@@H]1O
> 100 µM

Identify measured EC50 corresponding to CC(=O)O[C@@H]1CC[C@@]2(C)[C@H](CC[C@@H]3[C@@H]2CC[C@]2(C)[C@@H]([C@H](C)CCC(=O)O)CC[C@@H]32)C1
> 150 µM

Identify measured EC50 corresponding to COC(=O)CC[C@@H](C)[C@H]1CC[C@H]2[C@@H]3CC[C@@H]4C[C@H](O)CC[C@]4(C)[C@H]3CC[C@]12C
> 150 µM

Identify measured EC50 corresponding to C[C@H](CCC(=O)O)[C@H]1CC[C@H]2[C@@H]3[C@@H](O)C[C@@H]4C[C@H](O)CC[C@]4(C)[C@H]3CC[C@]12C
> 150 µM

Identify measured EC50 corresponding to C[C@H](CCC(=O)NCCS(=O)(=O)O)[C@H]1CC[C@H]2[C@@H]3CC[C@@H]4C[C@H](O)CC[C@]4(C)[C@H]3CC[C@]12C
> 150 µM

Identify measured EC50 corresponding to C[C@H](CCC(=O)O)[C@H]1CC[C@H]2[C@@H]3CC[C@@H]4C[C@H](O[C@@H]5O[C@H](C(=O)O)[C@@H](O)[C@H](O)[C@H]5O)CC[C@]4(C)[C@H]3CC[C@]12C
> 50 µM

---

Hi there, I'd appreciate the recorded EC50 for every entry that follows.
experimental target: Vitamin D3 receptor (Homo sapiens)
Sequence (P11473 whole entry): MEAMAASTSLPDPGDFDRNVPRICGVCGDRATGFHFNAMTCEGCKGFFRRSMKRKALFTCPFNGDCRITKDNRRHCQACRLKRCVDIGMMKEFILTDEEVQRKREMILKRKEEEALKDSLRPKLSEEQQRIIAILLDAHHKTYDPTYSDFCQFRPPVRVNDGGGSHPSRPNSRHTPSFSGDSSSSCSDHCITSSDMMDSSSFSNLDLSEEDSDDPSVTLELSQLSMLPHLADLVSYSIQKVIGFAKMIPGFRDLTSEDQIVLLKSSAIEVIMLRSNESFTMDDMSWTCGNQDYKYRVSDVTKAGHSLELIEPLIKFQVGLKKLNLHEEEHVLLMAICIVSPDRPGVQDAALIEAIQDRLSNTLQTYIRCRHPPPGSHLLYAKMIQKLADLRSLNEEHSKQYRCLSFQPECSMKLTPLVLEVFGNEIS
protocol notes: Agonist activity at VP16 tagged-VDR-LBD (unknown origin) expressed in HEK293T cells assessed as SRC1 coactivator peptide recruitment after 16 hrs by luciferase reporter gene based two hybrid assay
Assay type: cell-based, HEK-293T

Identify measured EC50 corresponding to C[C@H](CCC(=O)O)[C@H]1CC[C@H]2[C@@H]3[C@@H](O)C[C@@H]4C[C@H](O)CC[C@]4(C)[C@H]3CC[C@]12C
> 150 µM

Identify measured EC50 corresponding to C=C1/C(=C\C=C2/CCC[C@]3(C)[C@@H]([C@H](C)CC(=O)O)CC[C@@H]23)C[C@@H](O)C[C@@H]1O
0.87 µM

Identify measured EC50 corresponding to C[C@H](CCC(=O)O)[C@H]1CC[C@H]2[C@@H]3[C@H](O)C[C@@H]4C[C@H](O)CC[C@]4(C)[C@H]3CC[C@]12C
> 150 µM

Identify measured EC50 corresponding to C[C@H](CCC(=O)O)[C@H]1CC[C@H]2[C@@H]3CC[C@@H]4C[C@H](O[C@@H]5O[C@H](C(=O)O)[C@@H](O)[C@H](O)[C@H]5O)CC[C@]4(C)[C@H]3CC[C@]12C
20.5 µM

Identify measured EC50 corresponding to C[C@H](CCC(=O)O[C@@H]1O[C@H](C(=O)O)[C@@H](O)[C@H](O)[C@H]1O)[C@H]1CC[C@H]2[C@@H]3CC[C@@H]4C[C@H](O)CC[C@]4(C)[C@H]3CC[C@]12C
6.52 µM

Identify measured EC50 corresponding to C[C@H](CCC(=O)O)[C@H]1CC[C@H]2[C@@H]3C[C@H](O)[C@@H]4C[C@H](O)CC[C@]4(C)[C@H]3CC[C@]12C
> 150 µM

Identify measured EC50 corresponding to CC(=O)O[C@@H]1CC[C@@]2(C)[C@H](CC[C@@H]3[C@@H]2CC[C@]2(C)[C@@H]([C@H](C)CCC(=O)O)CC[C@@H]32)C1
1.49 µM

Identify measured EC50 corresponding to C[C@H](CCC(=O)NCC(=O)O)[C@H]1CC[C@H]2[C@@H]3CC[C@@H]4C[C@H](O)CC[C@]4(C)[C@H]3CC[C@]12C [LITHOGLYCOCHOLATE]
> 150 µM

Identify measured EC50 corresponding to COC(=O)CC[C@@H](C)[C@H]1CC[C@H]2[C@@H]3CC[C@@H]4C[C@H](O)CC[C@]4(C)[C@H]3CC[C@]12C
> 150 µM

Identify measured EC50 corresponding to C[C@H](CCC(=O)O)[C@H]1CC[C@H]2[C@@H]3CC[C@@H]4C[C@H](OS(=O)(=O)O)CC[C@]4(C)[C@H]3CC[C@]12C
> 150 µM

Identify measured EC50 corresponding to C[C@H](CCC(=O)NCCS(=O)(=O)O)[C@H]1CC[C@H]2[C@@H]3CC[C@@H]4C[C@H](O)CC[C@]4(C)[C@H]3CC[C@]12C
> 150 µM

Identify measured EC50 corresponding to C[C@H](CCC(=O)O)[C@H]1CC[C@H]2[C@@H]3CC[C@@H]4C[C@H](O)CC[C@]4(C)[C@H]3C[C@H](O)[C@]12C
> 150 µM

---

experimental target: Vitamin D3 receptor (Homo sapiens, UniProt P11473)
Sequence (P11473 whole entry): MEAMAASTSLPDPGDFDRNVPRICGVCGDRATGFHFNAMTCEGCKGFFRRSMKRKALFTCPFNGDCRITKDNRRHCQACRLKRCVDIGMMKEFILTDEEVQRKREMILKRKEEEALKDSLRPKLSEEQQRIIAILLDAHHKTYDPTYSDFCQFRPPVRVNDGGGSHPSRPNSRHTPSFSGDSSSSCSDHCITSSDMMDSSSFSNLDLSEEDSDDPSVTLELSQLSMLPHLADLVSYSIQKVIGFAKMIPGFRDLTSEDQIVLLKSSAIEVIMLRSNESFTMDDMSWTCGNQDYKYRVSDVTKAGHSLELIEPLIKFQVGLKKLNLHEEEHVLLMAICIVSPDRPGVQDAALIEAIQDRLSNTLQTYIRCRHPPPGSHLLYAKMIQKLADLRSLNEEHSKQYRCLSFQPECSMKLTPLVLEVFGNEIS
protocol notes: Antagonist activity against VDR-LBD (unknown origin) expressed in Escherichia coli assessed as inhibition of VDR agonist LG190178-induced SRC2-3 coactivator peptide recruitment after 30 mins by fluorescence polarization assay
reported property: IC50 (µM)
Numeric only. Scale: µM

Identify measured IC50 corresponding to C[C@H](CCC(=O)NCC(=O)O)[C@H]1CC[C@H]2[C@@H]3CC[C@@H]4C[C@H](O)CC[C@]4(C)[C@H]3CC[C@]12C [LITHOGLYCOCHOLATE]
40.1

Identify measured IC50 corresponding to C[C@H](CCC(=O)O[C@@H]1O[C@H](C(=O)O)[C@@H](O)[C@H](O)[C@H]1O)[C@H]1CC[C@H]2[C@@H]3CC[C@@H]4C[C@H](O)CC[C@]4(C)[C@H]3CC[C@]12C
2.86

Identify measured IC50 corresponding to CC(=O)O[C@@H]1CC[C@@]2(C)[C@H](CC[C@@H]3[C@@H]2CC[C@]2(C)[C@@H]([C@H](C)CCC(=O)O)CC[C@@H]32)C1
11

---

Hi there, I'd appreciate the recorded pIC50 for every entry that follows.
experimental target: Vitamin D3 receptor (Homo sapiens, UniProt P11473)
protocol notes: Antagonist activity against VDR-LBD (unknown origin) expressed in Escherichia coli assessed as inhibition of VDR agonist LG190178-induced SRC2-3 coactivator peptide recruitment after 30 mins by fluorescence polarization assay
pIC50: −log10 of the molar value.

Identify measured pIC50 corresponding to COC(=O)CC[C@@H](C)[C@H]1CC[C@H]2[C@@H]3CC[C@@H]4C[C@H](O)CC[C@]4(C)[C@H]3CC[C@]12C
< 3.82

Identify measured pIC50 corresponding to C[C@H](CCC(=O)O)[C@H]1CC[C@H]2[C@@H]3CC[C@@H]4C[C@H](O)CC[C@]4(C)[C@H]3C[C@H](O)[C@]12C
< 3.82

Identify measured pIC50 corresponding to C[C@H](CCC(=O)O)[C@H]1CC[C@H]2[C@@H]3[C@@H](O)C[C@@H]4C[C@H](O)CC[C@]4(C)[C@H]3CC[C@]12C
< 3.82
